Target System: Jun bZIP K258A;Fos bZIP K153A (human;human, UniProt P05412;P01100 252-315;137-200, K258A|K153A)
Sequence (P05412 252-315 K258A, chain 1 of 2): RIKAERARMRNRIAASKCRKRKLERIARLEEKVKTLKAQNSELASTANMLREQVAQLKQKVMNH
Sequence (P01100 137-200 K153A, chain 2 of 2): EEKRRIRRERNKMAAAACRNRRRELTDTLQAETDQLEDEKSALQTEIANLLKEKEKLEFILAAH
Assay Procedure: ITC
Test Readout: Kd

Task: // query Kd value for entry TRE duplex 15-mer (dsDNA) DNA 1: CGCGTGACTCACCCC DNA 2: GGGGTGAGTCACGCG
Output: 0.54 µM
